# Experimental system: Sodium-dependent serotonin transporter (Homo sapiens, UniProt P31645)
# Sequence (P31645 whole entry, looked up): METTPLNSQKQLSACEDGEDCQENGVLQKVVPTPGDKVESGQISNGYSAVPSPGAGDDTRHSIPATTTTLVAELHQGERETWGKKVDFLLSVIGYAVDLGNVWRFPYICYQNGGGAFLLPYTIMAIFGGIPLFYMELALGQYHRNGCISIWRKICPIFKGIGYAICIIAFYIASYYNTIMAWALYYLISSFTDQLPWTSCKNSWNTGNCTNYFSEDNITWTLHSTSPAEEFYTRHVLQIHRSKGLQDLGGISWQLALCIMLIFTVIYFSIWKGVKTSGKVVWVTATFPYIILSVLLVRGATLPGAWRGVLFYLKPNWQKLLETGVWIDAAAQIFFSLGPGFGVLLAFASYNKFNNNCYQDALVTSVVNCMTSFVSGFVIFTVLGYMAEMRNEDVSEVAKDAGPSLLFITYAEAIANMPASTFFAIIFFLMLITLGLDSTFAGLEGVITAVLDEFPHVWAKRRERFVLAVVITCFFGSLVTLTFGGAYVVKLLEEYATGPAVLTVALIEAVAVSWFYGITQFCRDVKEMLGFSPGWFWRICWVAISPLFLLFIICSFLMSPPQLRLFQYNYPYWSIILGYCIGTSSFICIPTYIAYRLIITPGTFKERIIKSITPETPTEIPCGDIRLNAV
# Procedure summary: Displacement of [3H]paroxetine from SERT in human platelet membrane at 10 uM
# Format: cell membranes
Label rule, in plain words: Activity of 10% and up is TRUE, under 10% is FALSE.

> print(dat)
                                chem.smiles    cat
1  COc1ccccc1N1CCN(C(=O)CCCn2nc(-n3ccnc3)ccc2=O)CC1  FALSE
2  O=c1ccc(-n2ccnc2)nn1CCCCN1CCN(c2ncccn2)CC1  FALSE
3  CC(C)Oc1ccccc1N1CCN(C(=O)CCCn2nc(-n3ccnc3)ccc2=O)CC1  FALSE
4  O=c1ccc(-n2ccc3ccccc32)nn1CCCCN1CCN(c2ncccn2)CC1   TRUE
5  O=c1ccc(-n2ccnc2)nn1CCCCN1CCN(c2ccc3c(c2)OCCO3)CC1   TRUE
6  CCOc1ccccc1N1CCN(CCCCn2nc(-n3ccnc3)ccc2=O)CC1   TRUE

Here's the next entry for you.
Enquiry: Determine whether measured Activity meets or exceeds 10% for `CCOc1ccccc1N1CCN(C(=O)CCCn2nc(-n3ccnc3)ccc2=O)CC1`
Return: TRUE

====

Listing of recorded Ki by entry.
# Procedure summary: Displacement of [3H]prazosin from alpha1 adrenoceptor in rat cortex membrane
# Type: cell membranes
Respond with the bare value in nM.

> print(dat)
                                   compound  unit.annotation  test.result
1  O=c1ccc(-n2ccc3ccccc32)nn1CCCCN1CCN(c2cccc(C(F)(F)F)c2)CC1               nM           60

Just so you know, measured Ki for COc1cc2nc(N3CCN(C(=O)c4ccco4)CC3)nc(N)c2cc1OC [PRAZOSIN] came out at 0.24

====

Listing of recorded Ki by entry.
# Procedure summary: Displacement of [3H]prazosin from alpha1 adrenoceptor in rat cortex membrane
# Assay type: cell membranes
Respond with the bare value in nM.

> print(dat)
                                chem.smiles  test.result
1  CCOc1ccccc1N1CCN(C(=O)CCCn2nc(-n3ccnc3)ccc2=O)CC1          492
2  CC(C)Oc1ccccc1N1CCN(C(=O)CCCn2nc(-n3ccnc3)ccc2=O)CC1          897
3  O=c1ccc(-n2ccnc2)nn1CCCCN1CCN(c2cccc(C(F)(F)F)c2)CC1          118
4  O=c1ccc(-n2ccc3ccccc32)nn1CCCCN1CCN(c2ncccn2)CC1           19

// moving on: another record for Ki
Just so you know, measured Ki for `O=c1ccc(-n2ccnc2)nn1CCCCN1CCN(c2ccc3c(c2)OCCO3)CC1` came out at 251
